These measurements were taken from patent US20240065261A1.

- Experiment notes: Water solubility
- Type: physicochemical
- Assay context: pH 7.4, aqueous buffer
Field: solubility. Provide a value for each of the compounds that follow.

Find the measured solubility of O=C(OCC(COC(=O)[C@@H]1CCCN1)OC(=O)[C@@H]1CCCN1)[C@@H]1CCCN1 [EGL-3Pro] and report it. ≥ 10 mM

Find the measured solubility of N[C@@H](Cc1ccccc1)C(=O)OCC(COC(=O)[C@@H](N)Cc1ccccc1)OC(=O)[C@@H](N)Cc1ccccc1 [EGL-3Phe] and report it. ≤ 2 mM
